- test name: in vitro
- recorded conditions: human
readout: CC50 at 3 days

Lookup: Read the entry C[C@H](CCC(=O)NCCNC(=O)CCCC[C@@H]1SCC2NC(=O)NC21)C1CCC2C3C(C[C@H](OC(=O)CCN)[C@@]21C)[C@@]1(C)CC[C@@H](OC(=O)CCN)CC1C[C@H]3OC(=O)CCN (stereo partly shown) [Compound 12] and write its reported CC50 at 3 days.
Found: > 200 µM

----------
- test name: Cytotoxicity in human primary cell cultures (Trypan Blue Staining)
- Format: cell-based
- recorded conditions: human, CC50
readout: CC50 at 48 h

Lookup: Read the entry C[C@H](CCC(=O)NCCNC(=O)CCCC[C@@H]1SCC2NC(=O)NC21)C1CCC2C3C(C[C@H](OC(=O)CCN)[C@@]21C)[C@@]1(C)CC[C@@H](OC(=O)CCN)CC1C[C@H]3OC(=O)CCN (stereo partly shown) and write its reported CC50 at 48 h.
Found: ~65 µg/mL

----------
- Test system: Calu-3 cells (ATCC #HTB-55)
- recorded conditions: human, 3 days
readout: CC50

Lookup: Specify the recorded CC50 for C[C@H](CCC(=O)NCCNC(=O)CCCC[C@@H]1SCC2NC(=O)NC21)C1CCC2C3C(C[C@H](OC(=O)CCN)[C@@]21C)[C@@]1(C)CC[C@@H](OC(=O)CCN)CC1C[C@H]3OC(=O)CCN (stereo partly shown) , system: Calu-3 cells (ATCC #HTB-55).
Found: > 200 µM
